# MIC per entry
Test system: M. tuberculosis H37Rv expressing GFP (H37Rv::pJKD6)
Experiment: microbe, parasite or virus in culture
Assay type: cell-based, Mycobacterium tuberculosis
Settings: Mycobacterium tuberculosis, H37RV, 168 h; read-out: MIC98 M. tuberculosis (GFP)
The reply should be a number in µM, with the unit left off.

For C=C1CC[C@H]2C(=C)C(=O)O[C@@H]2[C@@H]2O[C@]2(C)CC[C@H]1N(O)C(=O)Nc1ccc(F)cc1 , what is its reported MIC?
19

For C=C1CC[C@H]2C(=C)C(=O)O[C@@H]2[C@@H]2O[C@]2(C)CC[C@H]1N(O)C(=O)OCC , what is its reported MIC?
75

For C/C1=C\CC[C@@]2(C)O[C@H]2[C@H]2OC(=O)C(C)[C@@H]2CC1 (stereo partly shown) , what is its reported MIC?
300

---

Assay: Kinetic solubility in PBS by LC-MS/MS
Assay type: physicochemical
Settings: 21 °C, pH 7.4, aqueous buffer, kinetic from dmso stock
quantity measured: solubility at 24 h (µM)
The reply should be a number in µM, with the unit left off.

Recorded solubility at 24 h, per entry:
For C=C1CC[C@H]2C(=C)C(=O)O[C@@H]2[C@@H]2O[C@]2(C)CC[C@H]1N(O)C(=O)Nc1ccc(OC)cc1 , what is its reported solubility at 24 h?
184

For C=C1CC[C@H]2C(=C)C(=O)O[C@@H]2[C@@H]2O[C@]2(C)CC/C1=N/O , what is its reported solubility at 24 h?
186

Please examine the following record next.
For C=C1CC[C@H]2C(=C)C(=O)O[C@@H]2[C@@H]2O[C@]2(C)CC[C@H]1N(O)C(=O)OCC , what is its reported solubility at 24 h?
198

---

Test: Cytotoxicity by live imaging (Hoechst 33342 / propidium iodide)
Assay type: cell-based
Conditions: mouse
# CC50 per entry

For C=C1CC[C@H]2C(=C)C(=O)O[C@@H]2[C@@H]2O[C@]2(C)CC[C@H]1N(O)C(=O)OCc1ccccc1 , what is its reported CC50?
> 12.5 µM

For C=CCOC(=O)N(O)[C@@H]1CC[C@@]2(C)O[C@H]2[C@H]2OC(=O)C(=C)[C@@H]2CCC1=C , what is its reported CC50?
> 12.5 µM

---

Assay: Cytotoxicity by live imaging (Hoechst 33342 / propidium iodide)
Assay type: cell-based
Settings: mouse
# CC50 per entry
The reply should be a number in µM, with the unit left off.

For C=C1CC[C@H]2C(=C)C(=O)O[C@@H]2[C@@H]2O[C@]2(C)CC[C@H]1N(O)C(=O)OCC(Cl)(Cl)Cl [Compound 15] , what is its reported CC50?
12.5

For C=C1CC[C@H]2C(=C)C(=O)O[C@@H]2[C@@H]2O[C@]2(C)CC[C@H]1N(O)C(=O)OCC(C)C [Compound 18] , what is its reported CC50?
50

Please examine the following record next.
For C=C1CC[C@H]2C(=C)C(=O)O[C@@H]2[C@@H]2O[C@]2(C)CC[C@H]1N(O)C(=O)OCCOC [Compound 21] , what is its reported CC50?
100

---

Assay: Kinetic solubility in PBS by LC-MS/MS
Type: physicochemical
Conditions: 21 °C, pH 7.4, aqueous buffer, kinetic from dmso stock
quantity measured: solubility at 24 h (µM)
The reply should be a number in µM, with the unit left off.

Recorded solubility at 24 h, per entry:
For C=C1CC[C@H]2C(=C)C(=O)O[C@@H]2[C@@H]2O[C@]2(C)CC[C@H]1N(O)C(=O)NCCCOCC , what is its reported solubility at 24 h?
197

For C=C1CC[C@H]2C(=C)C(=O)O[C@@H]2[C@@H]2O[C@]2(C)CC[C@H]1N(O)C(=O)NCc1ccccc1 , what is its reported solubility at 24 h?
196

For C=C1CC[C@H]2C(=C)C(=O)O[C@@H]2[C@@H]2O[C@]2(C)CC[C@H]1N(O)C(=O)OC1CCOCC1 , what is its reported solubility at 24 h?
193

For C=C1C(=O)O[C@H]2[C@H]1CC/C(C)=C/CC[C@@]1(C)O[C@@H]21 [Compound 1, Parthenolide] , what is its reported solubility at 24 h?
135

For C=C1CC[C@H]2C(=C)C(=O)O[C@@H]2[C@@H]2O[C@]2(C)CC[C@H]1N(O)C(=O)Nc1ccc2c(c1)OCO2 , what is its reported solubility at 24 h?
182

Please examine the following record next.
For C=CCOC(=O)N(O)[C@@H]1CC[C@@]2(C)O[C@H]2[C@H]2OC(=O)C(=C)[C@@H]2CCC1=C , what is its reported solubility at 24 h?
192

---

Assay: Kinetic solubility in PBS by LC-MS/MS
Type: physicochemical
Conditions: 21 °C, pH 7.4, aqueous buffer, kinetic from dmso stock
quantity measured: solubility at 24 h (µM)
The reply should be a number in µM, with the unit left off.

Recorded solubility at 24 h, per entry:
For C=C1CC[C@H]2C(=C)C(=O)O[C@@H]2[C@@H]2O[C@]2(C)CC[C@H]1N(O)C(=O)OCc1ccccc1 [Compound 14] , what is its reported solubility at 24 h?
191

For C=C1CC[C@H]2C(=C)C(=O)O[C@@H]2[C@@H]2O[C@]2(C)CC[C@H]1N(O)C(=O)OCC(C)C [Compound 18] , what is its reported solubility at 24 h?
190

For C=C1CC[C@H]2C(=C)C(=O)O[C@@H]2[C@@H]2O[C@]2(C)CC[C@H]1N(O)C(=O)Nc1ccccc1 [Compound 4] , what is its reported solubility at 24 h?
186

***
For C=C1CC[C@H]2C(=C)C(=O)O[C@@H]2[C@@H]2O[C@]2(C)CC[C@H]1N(O)C(=O)Nc1ccc(F)cc1 [Compound 8] , what is its reported solubility at 24 h?
188

For C=C1CC[C@H]2C(=C)C(=O)O[C@@H]2[C@@H]2O[C@]2(C)CC[C@H]1N(O)C(=O)OCC(Cl)(Cl)Cl [Compound 15] , what is its reported solubility at 24 h?
184

For C=C1CC[C@H]2C(=C)C(=O)O[C@@H]2[C@@H]2O[C@]2(C)CC[C@H]1N(O)C(=O)Nc1ccc(C)cc1 [Compound 5] , what is its reported solubility at 24 h?
186

---

# MIC per entry
Test system: M. tuberculosis H37Rv expressing GFP (H37Rv::pJKD6)
Assay: microbe, parasite or virus in culture
Type: cell-based, Mycobacterium tuberculosis
Settings: Mycobacterium tuberculosis, H37RV, 168 h; read-out: MIC98 M. tuberculosis (GFP)
The reply should be a number in µM, with the unit left off.

Which measured MIC belongs to C=C1CC[C@H]2C(=C)C(=O)O[C@@H]2[C@@H]2O[C@]2(C)CC[C@H]1N(O)C(=O)Nc1ccc(OC)cc1 [Compound 7] , tested on M. tuberculosis H37Rv expressing GFP (H37Rv::pJKD6)?
19

Which measured MIC belongs to C=C1CC[C@H]2C(=C)C(=O)O[C@@H]2[C@@H]2O[C@]2(C)CC[C@H]1N(O)C(=O)OCC(C)C [Compound 18] , tested on M. tuberculosis H37Rv expressing GFP (H37Rv::pJKD6)?
19

Please examine the following record next.
Which measured MIC belongs to C=C1CC[C@H]2C(=C)C(=O)O[C@@H]2[C@@H]2O[C@]2(C)CC[C@H]1N(O)C(=O)Nc1ccc2c(c1)OCO2 [Compound 10] , tested on M. tuberculosis H37Rv expressing GFP (H37Rv::pJKD6)?
19

---

# MIC per entry
Test system: M. tuberculosis H37Rv expressing GFP (H37Rv::pJKD6)
Assay: microbe, parasite or virus in culture
Assay type: cell-based, Mycobacterium tuberculosis
Settings: Mycobacterium tuberculosis, H37RV, 168 h; read-out: MIC98 M. tuberculosis (GFP)
The reply should be a number in µM, with the unit left off.

Recorded MIC, per entry:
For C=C1CC[C@H]2C(=C)C(=O)O[C@@H]2[C@@H]2O[C@]2(C)CC[C@H]1N(O)C(=O)Nc1ccc(C)cc1 , what is its reported MIC?
19

For C=C1CC[C@H]2C(=C)C(=O)O[C@@H]2[C@@H]2O[C@]2(C)CC[C@H]1N(O)C(=O)NCCCOCC , what is its reported MIC?
150

For C=CCOC(=O)N(O)[C@@H]1CC[C@@]2(C)O[C@H]2[C@H]2OC(=O)C(=C)[C@@H]2CCC1=C , what is its reported MIC?
38

For C=C1CC[C@H]2C(=C)C(=O)O[C@@H]2[C@@H]2O[C@]2(C)CC[C@H]1N(O)C(=O)OC1CCOCC1 , what is its reported MIC?
38

For C=C1CC[C@H]2C(=C)C(=O)O[C@@H]2[C@@H]2O[C@]2(C)CC[C@H]1N(O)C(=O)OCC(Cl)(Cl)Cl , what is its reported MIC?
19

For C=C1CC[C@H]2C(=C)C(=O)O[C@@H]2[C@@H]2O[C@]2(C)CC[C@H]1N(O)C(=O)OCc1ccccc1 , what is its reported MIC?
38

Please examine the following record next.
For C=C1CC[C@H]2C(=C)C(=O)O[C@@H]2[C@@H]2O[C@]2(C)CC[C@H]1N(O)C(=O)Oc1ccccc1 , what is its reported MIC?
38
